- subject_of_test: CDK2/cyclin A (Homo sapiens, UniProt P20248)
- procedure_details: CDK2/cyclin A kinase activity assay
- Format: biochemical
- condition_label: read-out: IC50 CDK2/cyclin A kinase activity
Non-standard residues stand in square brackets, D forms with d. Residues, ends and D or L forms follow the SMILES beside them. Phe(4-F) = N[C@@H](Cc1ccc(F)cc1)C(=O)O
recorded_endpoint: IC50 (µM)
# value in µM; strip the unit string

Ask: // lookup IC50 for CC(C)C[C@H](NC(=O)[C@H](CCCNC(=N)N)NC(=O)[C@@H](N)CCCNC(=N)N)C(=O)N[C@@H](Cc1ccc(F)cc1)C(N)=O [SEQ ID NO: 29, H-Arg-Arg-Leu-—-(p-F-Phe)-NH2] (H-RRL[Phe(4-F)]-NH2)
Reply: 50
